Test system: pig pancreas alpha-amylase
Assay: Degradation by pig pancreas alpha-amylase
Type: biochemical
Settings: pH6.9, 37° C., 18 hours
property-label: PI in degradation product by alpha-amylase (%)
Quick note: give the figure in %, leave out the unit.

Inquiry: What does the data say about its PI in degradation product by alpha-amylase? Entry: OC[C@H]1O[C@H](O[C@H]2O[C@H](CO)[C@@H](O[C@H]3O[C@H](CO)[C@@H](O[C@H]4O[C@H](CO)[C@@H](O[C@H]5O[C@H](CO)[C@@H](O)[C@H](O)[C@H]5O)[C@H](O)[C@H]4O)[C@H](O)[C@H]3O)[C@H](O)[C@H]2O)[C@H](O)[C@@H](O)[C@@H]1O [PIII, alpha-maltotriosyl trehalose]
Reply text: 61.0

* * *

Tested on: glucoamylase
Assay: Enzymatic hydrolysis by glucoamylase
Format: biochemical
Conditions: pH4.5, 40° C., 6 hours
property-label: Trehalose in degradation product by glucoamylase (%)
Quick note: give the figure in %, leave out the unit.

Inquiry: What does the data say about its Trehalose in degradation product by glucoamylase? Entry: OC[C@H]1O[C@H](O[C@H]2O[C@H](CO)[C@@H](O[C@H]3O[C@H](CO)[C@@H](O[C@H]4O[C@H](CO)[C@@H](O[C@H]5O[C@H](CO)[C@@H](O[C@H]6O[C@H](CO)[C@@H](O)[C@H](O)[C@H]6O)[C@H](O)[C@H]5O)[C@H](O)[C@H]4O)[C@H](O)[C@H]3O)[C@H](O)[C@H]2O)[C@H](O)[C@@H](O)[C@@H]1O [PIV, alpha-maltotetraosyl trehalose]
Reply text: 31.7

Inquiry: What does the data say about its Trehalose in degradation product by glucoamylase? Entry: OC[C@H]1O[C@H](O[C@H]2O[C@H](CO)[C@@H](O[C@H]3O[C@H](CO)[C@@H](O[C@H]4O[C@H](CO)[C@@H](O[C@H]5O[C@H](CO)[C@@H](O)[C@H](O)[C@H]5O)[C@H](O)[C@H]4O)[C@H](O)[C@H]3O)[C@H](O)[C@H]2O)[C@H](O)[C@@H](O)[C@@H]1O [PIII, alpha-maltotriosyl trehalose]
Reply text: 38.6

Inquiry: What does the data say about its Trehalose in degradation product by glucoamylase? Entry: OC[C@H]1O[C@H](O[C@H]2O[C@H](CO)[C@@H](O[C@H]3O[C@H](CO)[C@@H](O)[C@H](O)[C@H]3O)[C@H](O)[C@H]2O)[C@H](O)[C@@H](O)[C@@H]1O [PI, alpha-glucosyl trehalose]
Reply text: 63.8

Inquiry: What does the data say about its Trehalose in degradation product by glucoamylase? Entry: OC[C@H]1O[C@H](O[C@H]2O[C@H](CO)[C@@H](O[C@H]3O[C@H](CO)[C@@H](O[C@H]4O[C@H](CO)[C@@H](O)[C@H](O)[C@H]4O)[C@H](O)[C@H]3O)[C@H](O)[C@H]2O)[C@H](O)[C@@H](O)[C@@H]1O [PII, alpha-maltosyl trehalose]
Reply text: 48.0

Please look at the following compound next.
Inquiry: What does the data say about its Trehalose in degradation product by glucoamylase? Entry: OC[C@H]1O[C@H](O[C@H]2O[C@H](CO)[C@@H](O[C@H]3O[C@H](CO)[C@@H](O[C@H]4O[C@H](CO)[C@@H](O[C@H]5O[C@H](CO)[C@@H](O[C@H]6O[C@H](CO)[C@@H](O[C@H]7O[C@H](CO)[C@@H](O)[C@H](O)[C@H]7O)[C@H](O)[C@H]6O)[C@H](O)[C@H]5O)[C@H](O)[C@H]4O)[C@H](O)[C@H]3O)[C@H](O)[C@H]2O)[C@H](O)[C@@H](O)[C@@H]1O [PV, alpha-maltopentaosyl trehalose]
Reply text: 27.1
